Provenance of the data: ChEMBL document CHEMBL1142279

molecular target: UniProtKB P17252; assay: Inhibition of PKCalpha
reportedEndpoint: IC50

1. Nc1nnc(-c2cnc(-c3ccc(CN4CCC(n5ncc6c(N)ncnc65)CC4)cc3)c(-c3ccccc3)c2)s1 > 10 µM

====

assay: Volume of distribution at steady state in dog at 0.25 mg/kg, iv; type: ADME, organism-based, Canis lupus familiaris; set-up: dose 0.25 mg/kg, route intravenous; details: in vivo, read-out: Vdss
reportedEndpoint: Vd (L/kg)

1) Nc1nnc(-c2cnc(-c3ccc(CN4CCC(n5ncc6c(N)ncnc65)CC4)cc3)c(-c3ccccc3)c2)s1 0.41
